assay: protein stability index of a GFP-peptide fusion (GPS, HEK-293T) (PSI 1-6); higher = more stable; conditions: treatment: MLN4924 1 uM, 8 h; c terminus: a fixed tail appended;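 also: 24-mer peptide tiles fused after GFP, lentivirally expressed, FACS-sorted into six equal bins by GFP/DsRed ratio, decoded by Illumina sequencing, PSI is the read-weighted mean bin number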

Macromolecule sequence: RELEEYRREVERKQKGSEENLDEA [ADD1]
protein stability index: 5.61

Macromolecule sequence: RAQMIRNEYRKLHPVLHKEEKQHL [TRIM43]
protein stability index: 3.73

Macromolecule sequence: ESRMRIESLSSQLSNLQKESRACL [LMNB1]
protein stability index: 3.94

Macromolecule sequence: QALQHVQASCDEAHKMKFSDLFSL [INTS3]
protein stability index: 2.95

Macromolecule sequence: VKFCLLGALLAPIRVLLAFIVLFL [LPCAT4]
protein stability index: 1.86

Macromolecule sequence: RFNRIGLPPKVGSFQLFVEGYKDA [PI4K2A]
protein stability index: 2.77

Macromolecule sequence: EQPVPPTPATPEDPAPLWGPPPAQ [EMID1]
protein stability index: 5.32

Macromolecule sequence: WDLRFRIIHETAVGMNFLHCMAPP [RIPK4]
protein stability index: 2.82

Macromolecule sequence: TEFTLGDDKHYGGFTNKQLQSGQE [PTPRD]
protein stability index: 4.77

Macromolecule sequence: QVADINDNPPTFSQVSYFTYIPEN [PCDHGA10]
protein stability index: 3.09

Macromolecule sequence: YVPNMLGIIPYAGIDLAVYETLKN [SLC25A25]
protein stability index: 2.61

Macromolecule sequence: GPAAAAAPSLEAPKPSGLEPGPAA [KCTD13]
protein stability index: 5.39

Macromolecule sequence: KESESEAKVDGETASDSESRAESA [CDS2]
protein stability index: 5.34

Macromolecule sequence: QNSRNKRAVQGPEETVTQDCLQLI [TNFSF13B]
protein stability index: 4.68

Macromolecule sequence: LANGRALSAGSPPVPPGWNPNSSS [DLX1]
protein stability index: 4

Macromolecule sequence: MIVDVTPYMNPSPFTVSPNTHVSQ [CLCN6]
protein stability index: 2.8

Macromolecule sequence: LCKLFPFLQKSSVGITVLNLCALS [EDNRA]
protein stability index: 2.72

Macromolecule sequence: ITTIGYGHAAPGTDAGKAFCMFYA [KCNK9]
protein stability index: 2.8

Macromolecule sequence: LRQRRPLRPQVVTDDDGQAPEAKD [APMAP]
protein stability index: 5.52

Macromolecule sequence: DLIDRGWRRSGKYVYKPVMNQTCC [ATE1]
protein stability index: 2.23

Macromolecule sequence: SGLSFITFICYVASSASAFLTAPL [CMTM3]
protein stability index: 2.96

Macromolecule sequence: ENSVEFEACLVAQCDALIDALNRR [TRIM9]
protein stability index: 3.11

Macromolecule sequence: DTGVFAVVNSHSLSLLGKLTISAA [SLC22A15]
protein stability index: 2.33

Macromolecule sequence: RHLDFHVKDLIKKLLVVDRTRRLG [PRKX]
protein stability index: 2.41

Macromolecule sequence: NVKYLKKILDELEKVLDQVETELQ [GDAP1]
protein stability index: 4.23

Macromolecule sequence: ILKQLIADVTLDPETAHPNLVLSE [TRIM39]
protein stability index: 2.81

Macromolecule sequence: EGVEIMLGVCASGLLIYRDRLRIN [EPB41L3]
protein stability index: 2.12

Macromolecule sequence: QHKDQTAALPLAAEETANLPPSPP [MAP2]
protein stability index: 5.45

Macromolecule sequence: GNMFPTIGDVHLAPFTDEQLYMEQ [CARM1]
protein stability index: 4.12

Macromolecule sequence: DIKAEPQPLSPASSSYSVSSPRSV [ATF6]
protein stability index: 4.74

Macromolecule sequence: VWYVKKFGRYLEHLEVKFMNPYNA [FBXO39]
protein stability index: 2.02

Macromolecule sequence: GLVTAALHMVIVAAFTWAFTLFFE [KMT2E]
protein stability index: 1.83

Macromolecule sequence: VDKDQPSILNSCEDPVPGMLFFLP [FBXO34]
protein stability index: 3.02

Macromolecule sequence: EFNGLKKMNPKLKTLLAIGGWNFS [CHIT1]
protein stability index: 2.32

Macromolecule sequence: ETVPWFPKKISDLDHCANRVLMYG [TPH1]
protein stability index: 2.46

Macromolecule sequence: SINAGSWMWLSCSSFFQQFFHCYC [CRY1]
protein stability index: 3.4

Macromolecule sequence: LNMEEPPVEEPEPKPDRLLVLKVL [SLC19A2]
protein stability index: 3.8

Macromolecule sequence: WNFDFVTETPLEGDFAWERVRGLG [CDKN1A]
protein stability index: 2.8

Macromolecule sequence: AAQFTDFLIPMLEMVPEKRASAGE [SRPK2]
protein stability index: 3.97

Macromolecule sequence: EDLQSIIYKLEEHEEFFPAFQAFT [CEP70]
protein stability index: 2.17

Macromolecule sequence: LLRDPADASEAHESSSRGEAGAPG [CHGB]
protein stability index: 5.34

Macromolecule sequence: IQASAGVISKKAKVKVPQKTAGKE [ZNF75A]
protein stability index: 4.79

Macromolecule sequence: SMKASLEGNLAETENRYCVQLSQI [KRT17]
protein stability index: 3.51

Macromolecule sequence: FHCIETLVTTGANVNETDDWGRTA [ANKRD44]
protein stability index: 3.15

Macromolecule sequence: SSQPQDNSQVHRETEDVDYGETDF [TMEM40]
protein stability index: 5.64

Macromolecule sequence: LGFARRNWGNGKRPNLETYYERVL [GDAP1]
protein stability index: 2.36

Macromolecule sequence: TGAHWMRQPVSFHRVKLTNSTLDP [TBX6]
protein stability index: 3.02

Macromolecule sequence: VGKSLTILGRTFFIYDCDPFTRRY [EFHC1]
protein stability index: 2.7

Macromolecule sequence: KSSTVGLVTLNDMKAKQEALVKER [FAM50A]
protein stability index: 4.45

Macromolecule sequence: NYRIAGARLMRSNYPPPLSSAALR [C6orf223]
protein stability index: 3.2

Macromolecule sequence: QRLLFSGASDNSIIMWDIGGRKGR [WDFY1]
protein stability index: 3.39

Macromolecule sequence: RGRYRQYNSEILEEAISVVMSGKM [LCOR]
protein stability index: 2.71

Macromolecule sequence: SCEACKAFFKRTIQGNIEYSCPAT [ESRRG]
protein stability index: 2.64

====

assay: protein stability index of a GFP-peptide fusion (GPS, HEK-293T) (PSI 1-6); higher = more stable; conditions: treatment: MLN4924 1 uM, 8 h; c terminus: a fixed tail appended
Everything with protein stability index lower than 3 is Criterion not met; everything else, including exactly 3, is Criterion met.

Macromolecule sequence: TKKGFYSLSVRHRQVKHYRIFRLP [SLA]
Category label: Criterion not met
//
Macromolecule sequence: GELQESGLALCPEVQDLLEGCELP [SMG5]
Category label: Criterion met
//
Macromolecule sequence: ACDNGLNVRGGKPDDITVLLSIVA [PPTC7]
Category label: Criterion not met
//
Macromolecule sequence: NQNLSNRPSFNRTPIPWLSSGEPV [MYOZ1]
Category label: Criterion met
//
Macromolecule sequence: TSNSDDNMLKNIELFDKLSLRFNG [KCTD10]
Category label: Criterion met
//
Macromolecule sequence: LKVRSHDPEEAIRHDVIVSIVTAA [PDS5B]
Category label: Criterion not met
//
Macromolecule sequence: YGPQVNNISHTKEKKKGKAKKKRL [WASL]
Category label: Criterion met
//
Macromolecule sequence: IELQAQHSMRNSLESTLAETEARY [KRT36]
Category label: Criterion met
//
Macromolecule sequence: ISLFFLIIYMGSFMLMLLVLGIQV [CDS1]
Category label: Criterion met
//
Macromolecule sequence: ILTSQPGKEVVKQLEEGLKDTDLA [M1AP]
Category label: Criterion met
//
Macromolecule sequence: EEGVVGGLSGGALSPLRAASDPLL [TFE3]
Category label: Criterion met
//
Macromolecule sequence: TGVQEVLSALLRATPGEYSVNICG [SPAG8]
Category label: Criterion not met
//
Macromolecule sequence: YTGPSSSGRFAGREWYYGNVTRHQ [NCK2]
Category label: Criterion not met

====

assay: protein stability index of a GFP-peptide fusion (GPS, HEK-293T) (PSI 1-6); higher = more stable; details: treatment: MLN4924 1 uM, 8 h; c terminus: a fixed tail appended
// not met strictly below 3 in protein stability index; met otherwise

Macromolecule sequence: VPTCSMCKVFGIHKACEVAPLQSV [TRIM63]
Category label: not met
//
Macromolecule sequence: EPKNYGSYSTQASAAAATAELLKK [SCAMP3]
Category label: met
//
Macromolecule sequence: AIQQMGGQWLGGRQIRTNWATRKP [TIA1]
Category label: met
//
Macromolecule sequence: GSPGMIYSTRYGSPKRQLQFYRNL [KCNAB2]
Category label: met
//
Macromolecule sequence: LTHLSLSRRASESSLSSESSESSD [CDC25B]
Category label: met
//
Macromolecule sequence: LANACLPVRTTNKISKQFVAPADV [ZSWIM9]
Category label: met
//
Macromolecule sequence: KITDFQLHASTVKRYGLGAHRGRL [CPXM2]
Category label: met
//
Macromolecule sequence: ALEAAVHVQKLSQECLKQLAIKKQ [TRIM14]
Category label: met
//
Macromolecule sequence: LLYNRSNNKYSYTSNSDDNMLKNI [KCTD10]
Category label: not met
//
Macromolecule sequence: VETELQRRNEETPEEGQQPWLCGE [GDAP1]
Category label: met
//
Macromolecule sequence: SLENSLREVEARYALQMEQLNGIL [KRT18]
Category label: not met
//
Macromolecule sequence: QGSRGLTDQAIFYAVTPLPWCPHL [HDAC6]
Category label: not met
//
Macromolecule sequence: AVYFAEADDPTSGFSSIPDAFWWA [KCNA3]
Category label: not met
//
Macromolecule sequence: LHAWEMKPYAVMVFQTEQKNLFRL [N4BP2L1]
Category label: not met
//
Macromolecule sequence: DVLRGNDETIGFEDILNDPSQSEV [POMP]
Category label: met
//
Macromolecule sequence: SDLGLLRLCTWLLALSPDLSLSNA [FANCE]
Category label: met
//
Macromolecule sequence: HRTRLQDLRVLVSNASEDTRRLRL [SCARA5]
Category label: met
//
Macromolecule sequence: AGFTGSGPIQLWQFLLELLSDKSC [ETS2]
Category label: not met
//
Macromolecule sequence: DSAELEPGSQTAVKNSNRYDVEMT [FBXO34]
Category label: met
//
Macromolecule sequence: IFQMVIICLMCVHSLERAGSKQYS [SMG5]
Category label: met
//
Macromolecule sequence: GKSPDTNYLFMGDYVDRGYYSVET [PPP2CA]
Category label: not met
//
Macromolecule sequence: PSDKMKWCLRVNPKGLDDESKDYL [SPOPL]
Category label: met
//
Macromolecule sequence: SSRQEKRPLCAQGDWHSPTLIREK [ELOA2]
Category label: met
//
Macromolecule sequence: LAQFPNTLLGNPKKRMRYFDPLRN [KCNA1]
Category label: not met
//
Macromolecule sequence: VSARSREGRGGRPGSTRPHRSACS [HAGHL]
Category label: met
//
Macromolecule sequence: DCGTIQENWVCLSCYQVYCGRYIN [HDAC6]
Category label: not met
